Reference for the values: BindingDB's records for doi:10.1021/jm950641i

experimental.target: Dimer of Gag-Pol polyprotein [514-612] (Human immunodeficiency virus 2)
Construct: 514-612
procedure.summary: Protease Inhibition Assay
reported.conditions: pH 4.7; 37 °C
Here the recorded Ki is given for each entry.

Query: Ki; subject: CC(C)C1NC(=O)[C@@H](C(O)[C@H](Cc2ccccc2)NC(=O)[C@@H](NC(=O)OCc2ccccc2)C(C)C)NCc2ccc(cc2)OCCOCCNC1=O (some centres undefined)
Reply: 19 nM

Query: Ki; subject: COc1ccc(CN[C@@H](C(=O)N[C@H]2c3ccccc3CC2O)C(O)[C@H](Cc2ccccc2)NC(=O)[C@@H](NC(=O)OCc2ccccc2)C(C)(C)C)cc1 (some centres undefined)
Reply: 50 nM

Query: Ki; subject: CC(C)C1NC(=O)[C@@H](C(O)[C@H](Cc2ccccc2)NC(=O)[C@@H](NC(=O)OCc2ccccc2)C(C)(C)C)NCc2ccc(cc2)OCCOCCNC1=O (some centres undefined)
Reply: 16 nM

Query: Ki; subject: CC(C)C1NC(=O)[C@@H](C(O)[C@H](Cc2ccccc2)NC(=O)[C@@H](NC(=O)OCc2ccccc2)C(C)C)NCc2ccc(cc2)OCCOCCOCCNC1=O (some centres undefined)
Reply: 27 nM

* * *

experimental.target: Dimer of Gag-Pol polyprotein [489-587] (Human immunodeficiency virus 1, UniProt P12497)
Construct: 489-587
procedure.summary: Protease Inhibition Assay
reported.conditions: pH 6.25; 37 °C
Please note: Ki exactly at 10 nM is -1. Only values below 10 nM get 1.

Check out these entries, answers already filled in.
molecule="CC(C)C1NC(=O)[C@@H](C(O)[C@H](Cc2ccccc2)NC(=O)OC(C)(C)C)NCc2ccc(cc2)OCCOCCNC1=O (stereo partly specified)" experimental_target="Dimer of Gag-Pol polyprotein [489-587] (Human immunodeficiency virus 1, UniProt P12497)" category_label=-1
molecule="CC(C)C1NC(=O)[C@@H](C(O)[C@H](Cc2ccccc2)NC(=O)OC(C)(C)C)NCc2ccc(cc2)OCCOCCOCCOCCNC1=O (stereo partly specified)" experimental_target="Dimer of Gag-Pol polyprotein [489-587] (Human immunodeficiency virus 1, UniProt P12497)" category_label=-1
molecule="CC(C)C1NC(=O)[C@@H](C(O)[C@H](Cc2ccccc2)NC(=O)[C@@H](NC(=O)CSc2nncn2C)C(C)(C)C)NCc2ccc(cc2)OCCOCCNC1=O (stereo partly specified)" experimental_target="Dimer of Gag-Pol polyprotein [489-587] (Human immunodeficiency virus 1, UniProt P12497)" category_label=-1

Query: Ki strictly < 10 nM for this molecule? CC(C)C1NC(=O)[C@@H](C(O)[C@H](Cc2ccccc2)NC(=O)[C@@H](NC(=O)OCc2ccccc2)C(C)(C)C)NCc2ccc(cc2)OCCOCCNC1=O (stereo partly specified)
Reply: 1

Query: Ki strictly < 10 nM for this molecule? CC(C)C1NC(=O)[C@@H](C(O)[C@H](Cc2ccccc2)NC(=O)[C@@H](NC(=O)OCc2ccccc2)C(C)C)NCc2ccc(cc2)OCCOCCOCCNC1=O (stereo partly specified)
Reply: 1

Query: Ki strictly < 10 nM for this molecule? COc1ccc(CN[C@@H](C(=O)NC(C(=O)NCc2nc3ccccc3[nH]2)C(C)C)C(O)[C@H](Cc2ccccc2)NC(=O)[C@@H](NC(=O)OCc2ccccc2)C(C)C)cc1 (stereo partly specified)
Reply: 1
